- target-of-assay: T1, AFP158/HLA-A*02:01 complex (human)
- T1 construct: biotinylated on the BSP by BirA for ELISA and panning; also called biotinylated AFP158/HLA-A*02:01 complex; Bio-AFP158
- experimental-protocol: SPR, crude scFv captured;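 note: Peptide–MHC complex flowed at several concentrations over sensorchip-captured scFv, Kd derived from on- and off-rates obtained from the association and dissociation curves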
Here, each record is paired with measured Kd data.
endpoint-name: Kd (nM)

[
  {
    "binder": "AS170036 VL1VH1 HG56P (scFv) scFv: QSALTQPRSVSGSPGQSVTISCAGTSSDVGSENYVSWYQQHPGKAPKLMIYQVNKRASGVPDRFSGSKSGNTASLTISGLQAEDEADYYCASYRSSDHNIVFGGGTKLTVLGGGGSGGGGSGGGGSEVQLVESGGGLVQPGGSLRLSCAASGFTFSSYAMSWVRQAPGKGLEWVSTINSGTPSPYYADSVKGRFTISRDNSKNTLYLQMNSLRAEDTAVYYCAKNFFDGSWFLGPPAMDYWGQGTLVTVSSHHHHHH",
    "endpoint-name": "Kd",
    "readout-number": 1600
  },
  {
    "binder": "AS170036 VL1VH1 HD102M (scFv) scFv: QSALTQPRSVSGSPGQSVTISCAGTSSDVGSENYVSWYQQHPGKAPKLMIYQVNKRASGVPDRFSGSKSGNTASLTISGLQAEDEADYYCASYRSSDHNIVFGGGTKLTVLGGGGSGGGGSGGGGSEVQLVESGGGLVQPGGSLRLSCAASGFTFSSYAMSWVRQAPGKGLEWVSTINSGTGSPYYADSVKGRFTISRDNSKNTLYLQMNSLRAEDTAVYYCAKNFFMGSWFLGPPAMDYWGQGTLVTVSSHHHHHH",
    "endpoint-name": "Kd",
    "readout-number": 840
  },
  {
    "binder": "AS170036 VL1VH1 HF106W (scFv) scFv: QSALTQPRSVSGSPGQSVTISCAGTSSDVGSENYVSWYQQHPGKAPKLMIYQVNKRASGVPDRFSGSKSGNTASLTISGLQAEDEADYYCASYRSSDHNIVFGGGTKLTVLGGGGSGGGGSGGGGSEVQLVESGGGLVQPGGSLRLSCAASGFTFSSYAMSWVRQAPGKGLEWVSTINSGTGSPYYADSVKGRFTISRDNSKNTLYLQMNSLRAEDTAVYYCAKNFFDGSWWLGPPAMDYWGQGTLVTVSSHHHHHH",
    "endpoint-name": "Kd",
    "readout-number": 630
  },
  {
    "binder": "AS170036 VL1VH1 HP110V (scFv) scFv: QSALTQPRSVSGSPGQSVTISCAGTSSDVGSENYVSWYQQHPGKAPKLMIYQVNKRASGVPDRFSGSKSGNTASLTISGLQAEDEADYYCASYRSSDHNIVFGGGTKLTVLGGGGSGGGGSGGGGSEVQLVESGGGLVQPGGSLRLSCAASGFTFSSYAMSWVRQAPGKGLEWVSTINSGTGSPYYADSVKGRFTISRDNSKNTLYLQMNSLRAEDTAVYYCAKNFFDGSWFLGPVAMDYWGQGTLVTVSSHHHHHH",
    "endpoint-name": "Kd",
    "readout-number": 400
  }
]
